tested on: Septoria tritici (SEPTTR); experiment: Septoria blotch of wheat foliar protectant test; assay type: in vivo; conditions: Zymoseptoria tritici; 200 ppm foliar, inoculated one day after treatment; read-out: Activity against fungal diseases SEPTTR
attributeMeasured: pest or weed control at 200 ppm

// input: 5 molecules below; output: pest or weed control at 200 ppm for each
1. Cc1cc(O)ccc1CCNc1ncnc2c(F)ccc(F)c12 [Compound 51]
2. COc1cc(CCNc2ncnc3c(F)ccc(F)c23)ccc1Oc1cc(C(F)(F)F)cc[n+]1[O-] [Compound 59]
3. Fc1ccc(F)c2c(NCCc3ccc(Oc4ccncc4C(F)(F)F)cc3)ncnc12 [Compound 83]
4. Fc1cc(F)c2ncnc(NCCc3ccc(Oc4cc(C(F)(F)F)ccn4)cc3)c2c1F [Compound 31]
5. Fc1ccc(F)c2c(NCCc3ccc(Oc4nccc(C(F)(F)F)n4)cc3)ncnc12 [Compound 3]

Result block:
1: 0 to 49%; 2: 80 to 100%; 3: 80 to 100%; 4: 80 to 100%; 5: 80 to 100%
